Origin of values: patent US9433687B2

Answer each item with its documented IC50 (ng Ab/mL) ± S.E.M., HCC2429.
Test system: HCC2429 (lung cancer)
Assay: In vitro cytotoxicity (MTS), HCC2429
Format: cell-based, human
Cond: Table 13; four days; LP = lacked potency
One number for each entry, in ng Ab/mL.

Batch of 3 molecules: report IC50 (ng Ab/mL) ± S.E.M., HCC2429 for each.
1. ch28-vc6780 (conjugate) VH: EVQLVESGGGLVQPGRSLTLSCVASGFTFRDYGMTWIRQAPGKGLTWVAYISSGSNYIYYAEAVKGRFTISRDNAKNTLYLQMTSLRSEDTALYFCTRRGPFVLDAWGQGASVTVSS VL: DIQMTQSPSFLSASVGDRVTINCKASQSINRYLHWFQQKLGEAPKLLIYNANGLQTGIPSRFSGSGSGTDFTLTISSLQSEDVATYFCLQHNTWPDTFGAGTKLELK
2. ch28-me0131 (conjugate) VH: EVQLVESGGGLVQPGRSLTLSCVASGFTFRDYGMTWIRQAPGKGLTWVAYISSGSNYIYYAEAVKGRFTISRDNAKNTLYLQMTSLRSEDTALYFCTRRGPFVLDAWGQGASVTVSS VL: DIQMTQSPSFLSASVGDRVTINCKASQSINRYLHWFQQKLGEAPKLLIYNANGLQTGIPSRFSGSGSGTDFTLTISSLQSEDVATYFCLQHNTWPDTFGAGTKLELK
3. ch28-mc0131 (conjugate) VH: EVQLVESGGGLVQPGRSLTLSCVASGFTFRDYGMTWIRQAPGKGLTWVAYISSGSNYIYYAEAVKGRFTISRDNAKNTLYLQMTSLRSEDTALYFCTRRGPFVLDAWGQGASVTVSS VL: DIQMTQSPSFLSASVGDRVTINCKASQSINRYLHWFQQKLGEAPKLLIYNANGLQTGIPSRFSGSGSGTDFTLTISSLQSEDVATYFCLQHNTWPDTFGAGTKLELK

Given back:
324
30
251
